As shown below, each of these compounds has a reported remaining activity at 1 µM value.
# Tested on: TPβ (Homo sapiens, UniProt P21731)
# Construct: expressed in transfected cells
# Sequence (P21731 1-407 isoform P21731-2): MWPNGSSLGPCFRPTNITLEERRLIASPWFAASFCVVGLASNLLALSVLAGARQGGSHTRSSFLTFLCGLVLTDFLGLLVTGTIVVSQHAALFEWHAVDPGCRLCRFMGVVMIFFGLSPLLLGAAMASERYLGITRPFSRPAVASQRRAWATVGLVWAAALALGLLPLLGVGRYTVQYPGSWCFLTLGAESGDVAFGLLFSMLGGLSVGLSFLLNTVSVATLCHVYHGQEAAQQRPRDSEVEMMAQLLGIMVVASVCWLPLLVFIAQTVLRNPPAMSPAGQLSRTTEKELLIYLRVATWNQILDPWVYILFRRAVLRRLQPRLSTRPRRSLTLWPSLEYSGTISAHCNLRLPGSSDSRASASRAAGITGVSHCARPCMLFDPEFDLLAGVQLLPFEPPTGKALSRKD
# Protocol: U46619-induced [Ca2+]i mobilization in HEK.TPβ cells
# Type: cell-based
# Reported conditions: antagonist 1 μM; 1 μM U46619; % of agonist-induced response in vehicle-treated cells; read-out: Percentage of Control, TPβ, 1 μM
# number only, unit % dropped from output

Completed entries (count: 5):
COc1ccc(-c2cccc(Oc3ccc(C(=O)N4CCOCC4)cc3S(=O)(=O)NC(=O)NC(C)(C)C)c2)cc1	85.1
COc1ccc(-c2cccc(Oc3ccc(C(=O)NCCN(C)C)cc3S(=O)(=O)NC(=O)NC(C)(C)C)c2)cc1	87.6
COc1ccc(-c2cccc(Oc3ccc(C(=O)N4CC(O)C4)cc3S(=O)(=O)NC(=O)NC(C)(C)C)c2)cc1	48.4
COc1ccc(-c2cccc(Oc3ccc(-c4ccncc4)cc3S(=O)(=O)NC(=O)NC(C)(C)C)c2)cc1	100
COc1ccc(-c2cccc(Oc3ccncc3S(=O)(=O)NC(=O)NC(C)(C)C)c2)cc1	74.8

Please look at the following compound next.
Record COc1ccc(-c2cccc(Oc3ccc(F)cc3S(=O)(=O)NC(=O)NC(C)(C)C)c2)cc1 , field remaining activity at 1 µM: 59.4
